# SYSTEM UNDER TEST: MAGI1_4, Q96QZ7
# Sequence (Q96QZ7 other isoform, or with tags, fused parts or gaps): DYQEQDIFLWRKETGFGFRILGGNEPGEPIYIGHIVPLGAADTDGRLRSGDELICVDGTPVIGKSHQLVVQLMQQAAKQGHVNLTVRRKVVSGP
# ASSAY NAME: holdup assay
# Parameters: key: below the threshold = too weak to quantify, mostly under pKd 3.1 to 4
# PROTOCOL CONDITIONS: plain residues with an end cap or a label only (N-terminal biotin on a linker: ttds)
READOUT NAME: pKd

Solved entries (count: 5):
Q) Quick one: pKd of PPRQRSETQV [HPV82-E6, Q9IR59] ?
A) 4.2

Q) Then what about the binder SRSRRRETAL [HPV33-E6, P06427] ?
A) below the threshold

Q) Then what about the binder PSRDRKETSI [RALBP1, Q15311] ?
A) below the threshold

Q) Then what about the binder KLVIKTETTV [RASSF6, Q6ZTQ3] ?
A) below the threshold

Q) Then what about the binder SHSSKGETAV [FZD7, O75084] ?
A) below the threshold

New cases:
Q) Quick one: pKd of SSIDLWETAL [SLC15A5, A6NIM6] ?
A) below the threshold

Every entry's value here was drawn from paper PMC9482650.
